System: Peritoneal macrophage
Assay: Cytotoxicity against BALB/c mouse peritoneal macrophages assessed as reduction in cell viability at 20 ug incubated for 48 hrs by MTT assay
Assay type: toxicity, cell-based
Details: dose 20 µg

substance-smiles	Activity
CCCCCCCCCCCCCCOC(=O)CC[C@@H](NC(=O)[C@H](C)NC(=O)[C@@H](C)O[C@H]1[C@H](O)[C@@H](CO)O[C@H](OCc2ccccc2)[C@@H]1N=[N+]=[N-])C(N)=O	Non-Toxic
CCCCCCCCOC(=O)CC[C@@H](NC(=O)[C@H](C)NC(=O)[C@@H](C)O[C@H]1[C@H](O)[C@@H](CO)O[C@H](OCc2ccccc2)[C@@H]1N=[N+]=[N-])C(N)=O	Non-Toxic
C[C@H](NC(=O)[C@@H](C)O[C@H]1[C@H](O)[C@@H](CO)O[C@H](OCc2ccccc2)[C@@H]1N=[N+]=[N-])C(=O)N[C@H](CCC(=O)OCc1ccccc1)C(N)=O	Non-Toxic
